Measured values drawn from patent US20140154243A1 for this set.

Biological target: human hepatocyte growth factor (HGF) (human, UniProt P14210 32-728)
Sequence (P14210 32-728 limits assumed): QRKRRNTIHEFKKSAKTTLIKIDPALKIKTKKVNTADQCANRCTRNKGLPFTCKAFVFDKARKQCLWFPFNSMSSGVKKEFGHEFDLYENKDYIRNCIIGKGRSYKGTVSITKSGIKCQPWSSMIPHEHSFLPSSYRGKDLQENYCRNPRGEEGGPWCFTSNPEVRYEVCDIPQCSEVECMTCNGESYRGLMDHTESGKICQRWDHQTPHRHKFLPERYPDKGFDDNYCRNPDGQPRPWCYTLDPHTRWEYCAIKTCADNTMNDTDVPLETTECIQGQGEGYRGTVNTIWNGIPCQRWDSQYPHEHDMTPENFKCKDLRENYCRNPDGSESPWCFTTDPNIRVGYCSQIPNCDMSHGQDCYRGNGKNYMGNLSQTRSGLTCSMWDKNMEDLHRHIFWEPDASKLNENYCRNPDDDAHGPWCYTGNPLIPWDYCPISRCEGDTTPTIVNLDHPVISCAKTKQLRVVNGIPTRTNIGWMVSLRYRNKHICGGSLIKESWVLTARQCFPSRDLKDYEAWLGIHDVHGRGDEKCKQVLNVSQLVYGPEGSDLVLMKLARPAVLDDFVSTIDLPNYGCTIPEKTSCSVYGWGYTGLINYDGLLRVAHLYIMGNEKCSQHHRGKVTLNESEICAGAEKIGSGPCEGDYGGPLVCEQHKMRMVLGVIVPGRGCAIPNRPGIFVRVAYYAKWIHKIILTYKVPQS
Assay: cell-based or functional assay
MEASURED_PARAMETER: IC50, inhibition of growth/survival of U-87 MG cells

BINDER: antibody 1.75.1 (antibody, human IgG2, kappa, V domains shown, also called antibody to HGF ultimately derived from hybridoma 1.75.1) VH: QVQLQESGPGLVKPSQTLSLTCTVSGGSISSGGYYWSWIRQHPGKGLEWIGYIYYSGSTYYNPSLKSRVTISVDTSKNQFSLKVSSVTAADTAVYYCARDPLWFGEFDYYGMDVWGQGTTVTVSS VL: DIQMTQSPSSLSASVGDRVTITCRASQGIRNDLGWFQQKPGKAPKRLIYAASSLQSGVPSRFSGSGSGTEFTLTISSLQPEDFATYYCLQHDSYPLTFGGGTKVEIKR
REPORTED_MEASUREMENT: < 100 nM

Problem: Record request: IC50, inhibition of growth/survival of U-87 MG cells value, item antibody 2.40.1 (antibody, human IgG2, kappa, V domains shown, also called antibody to HGF ultimately derived from hybridoma 2.40.1) VH: QVQLQESGPGLVKPSQTLSLTCTVSGGSISSGGYYWSWIRQHPGKGLEWIGNIYYSGITYYNPSLKSRVTMSVDTSKNQFSLKLSSVTAADTAVYYCARDPLYGDYGFDPWGQGTLVTVSS VL: DIQMTQSPSSLSASVGDRVTITCRASQGIRNDLGWYQQKPGKAPKRLIYVASSLQSGVPSRFSGSGSGTEFTLTISSLQPEDFATYYCLQHNSYPLTFGGGTKVEIKR
Solution: < 100 nM
